Test system: NCI-H23 lung
Assay: NCI-60 one-dose screen, 48 h (100 = growth as untreated, 0 = no growth, -100 = all killed)
Conditions: 10 µM unless noted
The panel holds about 83,000 compounds, 20% with a hit somewhere; the sample as a whole holds those more often.
Yes if growth is below 60%. No if not; exact matches included in No.

Here's what some known entries look like.
>  <cpd smiles>
CC1(C)C=Cc2c(ccc3c2[N+]([O-])=C2C3=C[C@@]34NC(=O)[C@]5(CCCN5C3=O)C[C@@H]4C2(C)C)O1

>  <target system>
NCI-H23 lung

>  <discrete label>
No

$$$$
>  <cpd smiles>
COc1ccc(N)cc1OC

>  <target system>
NCI-H23 lung

>  <discrete label>
No

$$$$
>  <cpd smiles>
O=Cc1cn(Cc2ccccc2)c2ccccc12

>  <target system>
NCI-H23 lung

>  <discrete label>
No

$$$$
>  <cpd smiles>
N#CC(NC(=O)CCl)=C(Cl)Cl

>  <target system>
NCI-H23 lung

>  <discrete label>
Yes

$$$$
>  <cpd smiles>
C[C@@H]1C/C=C\C(=O)O[C@H](/C=C/C#C/C=C/C(C)(C)[C@@H](O)c2cccc(O)c2Br)[C@@H](C)/C=C/[C@H](C)C[C@H](OC(N)=O)C1

>  <target system>
NCI-H23 lung

>  <discrete label>
Yes

$$$$
>  <cpd smiles>
C[C@]12CC[C@H]3[C@@H](C[C@@H]4SC(Nc5cccc(F)c5)=N[C@@]45CC(=O)CC[C@]35C)[C@@H]1CCC2=O

>  <target system>
NCI-H23 lung

>  <discrete label>
Yes

$$$$
>  <cpd smiles>
O=[N+]([O-])c1ccc2scc3c4ccccc4nc-3c2c1

>  <target system>
NCI-H23 lung

>  <discrete label>
Yes

$$$$
>  <cpd smiles>
C[C@]12CCc3sc(Nc4ccc(OC(F)(F)F)cc4)nc3C1=CC[C@@H]1[C@@H]2CC[C@]2(C)C(=O)CC[C@@H]12

>  <target system>
NCI-H23 lung

>  <discrete label>
No

$$$$

We next turn to a different compound, shown below.
Is growth strictly under 60% for the entry O=c1[nH]c(=O)n(Cl)c(=O)n1Cl ?
No

Cited source for all entries: PubChem BioAssay (NCI)
